# assay.summary: capillary depletion analysis after in situ brain perfusion
# Type: in vivo, mouse
# condition: male, Balb/c, mouse, supernatant (brain parenchyma), other: in situ brain perfusion, with unlabelled ADMA 100 µM, Arginine / Sucrose uptake, supernatant, [3H] Arginine + [14C] Sucrose + 100µM un-labelled ADMA, 10 mins, Balb/c ♂, 5ml/min; single mice
readout.name: Kp at 10 min

>>> observed_result("OC[C@H]1O[C@@](CO)(O[C@H]2O[C@H](CO)[C@@H](O)[C@H](O)[C@H]2O)[C@@H](O)[C@@H]1O [[^14C]-sucrose, reference compound]")
0.0158

----------
# assay.summary: self-inhibition, in situ perfusion: [^3H]-arginine with 100 μM unlabelled L-arginine
# Assay type: in vivo, mouse
# condition: male, Balb/c, mouse, pons, other: in situ brain perfusion, with 100 µM unlabelled L-arginine, pons: [14C] Sucrose, +100uM Un-labelled arginine, 10 mins, Balb/c ♂, 5ml/min; mean
readout.name: Kp at 10 min

>>> observed_result("OC[C@H]1O[C@@](CO)(O[C@H]2O[C@H](CO)[C@@H](O)[C@H](O)[C@H]2O)[C@@H](O)[C@@H]1O [[^14C]-sucrose, reference compound]")
0.0326

----------
# assay.summary: in situ brain/choroid plexus perfusion: CNS uptake of [^3H]-arginine, [^3H]-ADMA and [^14C]-sucrose (multiple-time and single-time uptake analysis)
# condition: male, BALB/c, mouse, choroid plexus, [3H] ADMA and [14C] Sucrose uptake, 20 mins, 5ml/min; mean
Counter-ions that a name gives are not always drawn.
readout.name: Kp at 20 min, 62.5 nM

>>> observed_result("CN(C)C(N)=NCCC[C@H](N)C(=O)O [ADMA, N^G,N^G-dimethylarginine dihydrochloride]")
2.24

----------
# assay.summary: in situ brain/choroid plexus perfusion: CNS uptake of [^3H]-arginine, [^3H]-ADMA and [^14C]-sucrose (multiple-time and single-time uptake analysis)
# condition: male, BALB/c, mouse, in vivo, tissue or CSF to plasma ratio (mean), hypothalamus; 20 mins; uncorrected; given as fraction
readout.name: Kp at 20 min

>>> observed_result("OC[C@H]1O[C@@](CO)(O[C@H]2O[C@H](CO)[C@@H](O)[C@H](O)[C@H]2O)[C@@H](O)[C@@H]1O [[^14C]-sucrose, reference compound]")
0.0657

----------
# assay.summary: self-inhibition, in situ perfusion: [^3H]-ADMA with 100 μM unlabelled ADMA
# Format: in vivo, mouse
# condition: male, BALB/c, mouse, occipital cortex, other: in situ brain perfusion, with unlabelled ADMA 100 µM, [3H] ADMA + [14C] Sucrose + 100uM un-labelled ADMA, 10 mins, Balb/c ♂, 5ml/min; mean; read-out: uptake into occipital cortex
Where a name gives a salt, the structure may show the parent alone.
readout.name: Kp at 10 min, 62.5 nM

>>> observed_result("CN(C)C(N)=NCCC[C@H](N)C(=O)O [ADMA, N^G,N^G-dimethylarginine dihydrochloride]")
0.107

----------
# Test system: [3H]-ADMA transport across the blood-brain and blood-CSF barriers
# assay.summary: cross-inhibition, in situ perfusion: [^3H]-ADMA with 100 μM unlabelled L-arginine
# Assay type: in vivo, mouse
# condition: male, Balb/c, mouse, occipital cortex, other: in situ brain perfusion, with 100 µM unlabelled L-arginine, [3H] ADMA + [14C] Sucrose + 100uM Arg, 10 mins, Balb/c ♂, 5ml/min; mean; read-out: uptake into occipital cortex
Counter-ions that a name gives are not always drawn.
readout.name: Kp at 10 min, 62.5 nM

>>> observed_result("CN(C)C(N)=NCCC[C@H](N)C(=O)O [ADMA, N^G,N^G-dimethylarginine dihydrochloride]")
0.0669

----------
# Test system: [3H]-ADMA transport across the blood-brain and blood-CSF barriers
# assay.summary: cross-inhibition, in situ perfusion: [^3H]-ADMA with 100 μM unlabelled L-arginine
# Format: in vivo, mouse
# condition: male, Balb/c, mouse, choroid plexus, other: in situ brain perfusion, with 100 µM unlabelled L-arginine, [3H] ADMA + [14C] Sucrose + 100uM Arg, 10 mins, Balb/c ♂, 5ml/min; individual mice; read-out: uptake into choroid plexus
Counter-ions that a name gives are not always drawn.
Listed below: Kp at 10 min, 62.5 nM values for each entry.
readout.name: Kp at 10 min, 62.5 nM

>>> observed_result("OC[C@H]1O[C@@](CO)(O[C@H]2O[C@H](CO)[C@@H](O)[C@H](O)[C@H]2O)[C@@H](O)[C@@H]1O [[^14C]-sucrose, reference compound]")
0.14
>>> observed_result("CN(C)C(N)=NCCC[C@H](N)C(=O)O [ADMA, N^G,N^G-dimethylarginine dihydrochloride]")
0.609

----------
# System: [3H]-ADMA transport across the blood-brain and blood-CSF barriers
# assay.summary: cross-inhibition, in situ perfusion: [^3H]-ADMA with 100 μM unlabelled L-arginine
# Type: in vivo, mouse
# condition: male, Balb/c, mouse, caudate nucleus, other: in situ brain perfusion, with 100 µM unlabelled L-arginine, Difference (ADMA minus Sucrose), caudate nucleus, + 100uM Arg, 10 mins, Balb/c ♂, 5ml/min; mean
Structures can show the parent of a compound that is named as a salt.
readout.name: Kp at 10 min, 62.5 nM

>>> observed_result("CN(C)C(N)=NCCC[C@H](N)C(=O)O [ADMA, N^G,N^G-dimethylarginine dihydrochloride]")
0.0481

----------
# assay.summary: in situ brain/choroid plexus perfusion: CNS uptake of [^3H]-arginine, [^3H]-ADMA and [^14C]-sucrose (multiple-time and single-time uptake analysis)
# condition: male, BALB/c, mouse, pineal gland, [3H] ADMA and [14C] Sucrose uptake, 20 mins, 5ml/min; mean
Where a name gives a salt, the structure may show the parent alone.
readout.name: Kp at 20 min, 62.5 nM

>>> observed_result("CN(C)C(N)=NCCC[C@H](N)C(=O)O [ADMA, N^G,N^G-dimethylarginine dihydrochloride]")
1.32

----------
# assay.summary: in situ brain/choroid plexus perfusion: CNS uptake of [^3H]-arginine, [^3H]-ADMA and [^14C]-sucrose (multiple-time and single-time uptake analysis)
# condition: male, BALB/c, mouse, frontal cortex, Difference (ADMA minus Sucrose), 20 mins, 5ml/min; mean
Where a name gives a salt, the structure may show the parent alone.
readout.name: Kp at 20 min, 62.5 nM

>>> observed_result("CN(C)C(N)=NCCC[C@H](N)C(=O)O [ADMA, N^G,N^G-dimethylarginine dihydrochloride]")
0.276

----------
# assay.summary: in situ brain/choroid plexus perfusion: CNS uptake of [^3H]-arginine, [^3H]-ADMA and [^14C]-sucrose (multiple-time and single-time uptake analysis)
# condition: male, BALB/c, mouse, thalamus, [3H] ADMA and [14C] Sucrose uptake, 20 mins, 5ml/min; mean
Where a name gives a salt, the structure may show the parent alone.
readout.name: Kp at 20 min, 62.5 nM

>>> observed_result("CN(C)C(N)=NCCC[C@H](N)C(=O)O [ADMA, N^G,N^G-dimethylarginine dihydrochloride]")
0.312

----------
# Tested on: [3H]-ADMA transport across the blood-brain and blood-CSF barriers
# assay.summary: cross-inhibition, in situ perfusion: [^3H]-ADMA with 100 μM unlabelled L-arginine
# Format: in vivo, mouse
# condition: male, Balb/c, mouse, cerebellum, other: in situ brain perfusion, with 100 µM unlabelled L-arginine, Difference (ADMA minus Sucrose), cerebellum, + 100uM Arg, 10 mins, Balb/c ♂, 5ml/min; mean
Counter-ions that a name gives are not always drawn.
readout.name: Kp at 10 min, 62.5 nM

>>> observed_result("CN(C)C(N)=NCCC[C@H](N)C(=O)O [ADMA, N^G,N^G-dimethylarginine dihydrochloride]")
0.0445

----------
# assay.summary: self-inhibition, in situ perfusion: [^3H]-ADMA with 100 μM unlabelled ADMA
# Format: in vivo, mouse
# condition: male, BALB/c, mouse, hippocampus, other: in situ brain perfusion, with unlabelled ADMA 100 µM, [3H] ADMA + [14C] Sucrose + 100uM un-labelled ADMA, 10 mins, Balb/c ♂, 5ml/min; mean; read-out: uptake into hippocampus
Where a name gives a salt, the structure may show the parent alone.
readout.name: Kp at 10 min, 62.5 nM

>>> observed_result("CN(C)C(N)=NCCC[C@H](N)C(=O)O [ADMA, N^G,N^G-dimethylarginine dihydrochloride]")
0.0817

----------
# assay.summary: in situ brain/choroid plexus perfusion: CNS uptake of [^3H]-arginine, [^3H]-ADMA and [^14C]-sucrose (multiple-time and single-time uptake analysis)
# condition: male, BALB/c, mouse, choroid plexus, [3H] ADMA and [14C] Sucrose uptake, 2.5 mins, 5ml/min; mean
Structures can show the parent of a compound that is named as a salt.
readout.name: Kp at […], 62.5 nM

>>> observed_result("CN(C)C(N)=NCCC[C@H](N)C(=O)O [ADMA, N^G,N^G-dimethylarginine dihydrochloride]")
0.855

----------
# assay.summary: in situ brain/choroid plexus perfusion: CNS uptake of [^3H]-arginine, [^3H]-ADMA and [^14C]-sucrose (multiple-time and single-time uptake analysis)
# condition: male, BALB/c, mouse, hypothalamus, [3H] ADMA and [14C] Sucrose uptake, 20 mins, 5ml/min; individual mouse
Where a name gives a salt, the structure may show the parent alone.
readout.name: Kp at 20 min, 62.5 nM

>>> observed_result("CN(C)C(N)=NCCC[C@H](N)C(=O)O [ADMA, N^G,N^G-dimethylarginine dihydrochloride]")
0.38
